The following molecules are shown together with reported IC50 values.
Test system: HRV16 in MRC5 cells
assay.procedure: HRV16 induced CPE in MRC5 cells
Assay type: cell-based
assay.context: Human rhinovirus sp., HRV-16
Return type: number; implicit unit nM.

# count of solved cases: 3
COc1cc(Nc2nccc(Oc3ccc(NC(=O)Nc4cc(C5CC5)nn4-c4ccc(C)cc4)c4ccccc34)n2)cc(C(=O)NCCN2CCOCC2)c1 6.8
COc1cc(Nc2nccc(Oc3ccc(NC(=O)Nc4cc(C(C)C)nn4-c4ccc(C)cc4)c4ccccc34)n2)cc(C(=O)NCCN2CCOCC2)c1 5.4
Cc1ccc(-n2nc(C(C)(C)C)cc2NC(=O)Nc2ccc(Oc3ccnc(Nc4cc(C)cc(C(N)=O)c4)n3)c3ccccc23)cc1 2.9

Incoming: Param item = `COc1cc(Nc2nccc(Oc3ccc(NC(=O)Nc4cc(C(F)(F)C(F)(F)F)nn4-c4ccc(C)cc4)c4ccccc34)n2)cc(C(=O)NCCN2CCOCC2)c1` ; retrieve measured IC50.
Outgoing: 1.7

Incoming: Item: `COc1cc(Nc2cc(Oc3ccc(NC(=O)Nc4cc(C(C)(C)C)nn4-c4ccc(C)cc4)c4ccccc34)ccn2)cc(C(=O)NCCN2CCOCC2)c1`
Outgoing: 2.9

Incoming: Now consider `COc1cc(Nc2nccc(Oc3ccc(NC(=O)Nc4cc(C5(C)CC5)nn4-c4ccc(C)cc4)c4ccccc34)n2)cc(C(=O)NCCN2CCOCC2)c1` .
Outgoing: 1.9

Incoming: Ok, now `COc1ccc(-n2nc(C(C)(C)C)cc2NC(=O)Nc2ccc(Oc3ccnc(Nc4cc(Br)cc(C(N)=O)c4)n3)c3ccccc23)cc1`
Outgoing: 2.2

Incoming: Lookup `COc1ccc(-n2nc(C(C)C)cc2NC(=O)Nc2ccc(Oc3ccnc(Nc4cc(OC)cc(C(=O)NCCN5CCOCC5)c4)n3)c3ccccc23)cc1`
Outgoing: 2

Incoming: Also `COc1ccc(-n2nc(C3(C)COC3)cc2NC(=O)Nc2ccc(Oc3ccnc(Nc4cccc(C(=O)NCCN5CCOCC5)c4)n3)c3ccccc23)cc1` ?
Outgoing: 22.3

Incoming: Same question, `COc1ccc(C(=O)NCCN2CCOCC2)cc1Nc1nccc(Oc2ccc(NC(=O)Nc3cc(C(C)C)nn3-c3ccc(C)cc3)c3ccccc23)n1` this time
Outgoing: 0.43

====

system.under.test: cSrc (Homo sapiens)
Sequence (P12931 whole entry): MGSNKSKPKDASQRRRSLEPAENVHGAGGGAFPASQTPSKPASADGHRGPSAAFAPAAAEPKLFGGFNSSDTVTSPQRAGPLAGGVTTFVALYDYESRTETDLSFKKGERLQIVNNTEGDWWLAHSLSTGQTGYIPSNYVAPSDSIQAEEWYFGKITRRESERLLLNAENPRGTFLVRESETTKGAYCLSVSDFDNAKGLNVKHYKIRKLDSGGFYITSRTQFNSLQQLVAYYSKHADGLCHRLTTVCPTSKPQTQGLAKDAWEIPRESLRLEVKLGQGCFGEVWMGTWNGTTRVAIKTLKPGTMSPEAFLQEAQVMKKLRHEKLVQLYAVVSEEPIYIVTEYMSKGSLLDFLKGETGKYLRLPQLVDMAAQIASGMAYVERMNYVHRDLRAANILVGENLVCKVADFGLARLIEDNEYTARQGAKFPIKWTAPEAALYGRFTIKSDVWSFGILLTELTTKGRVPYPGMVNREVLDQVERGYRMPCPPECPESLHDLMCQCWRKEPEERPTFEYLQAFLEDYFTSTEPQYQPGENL
assay.procedure: c-Src enzyme inhibition (FRET)
Format: biochemical
assay.context: Table 4a1
value.type: pIC50
By convention, pIC50 is the negative base-10 log of a molar concentration.

COc1ccc(-n2nc(C(C)C)cc2NC(=O)Nc2ccc(Oc3ccnc(Nc4cc(C(=O)NCCN5CCOCC5)cc(C(F)(F)F)c4)n3)c3ccccc23)cc1 8.30
Cc1ccc(-n2nc(C(C)(C)C)cc2NC(=O)Nc2ccc(Oc3ccnc(Nc4cc(Br)cc(C(=O)NCCN5CCOCC5)c4)n3)c3ccccc23)cc1 8.15

Then this molecule:
Incoming: Need pIC50, item `COc1cc(Nc2nccc(Oc3ccc(NC(=O)Nc4cc(C(C)C)nn4-c4ccc(C)cc4)c4ccccc34)n2)cc(C(=O)NCCO)c1`
Outgoing: 7.43

====

system.under.test: UniProt P12931
assay.procedure: c-Src enzyme inhibition (FRET)
Assay type: biochemical
assay.context: Table 4a1
As shown below, each of these compounds has a reported IC50 value.
Number in nM, nothing else.

Incoming: Notebook: pull reported IC50 for UniProt P12931, entry C=C(C)c1cc(NC(=O)Nc2ccc(Oc3ccnc(Nc4cc(OC)cc(C(=O)NCCN5CCOCC5)c4)n3)c3ccccc23)n(-c2ccc(OC)cc2)n1 [Example 86]
Outgoing: 8

Incoming: Same read-out for CCc1cc(NC(=O)Nc2ccc(Oc3ccnc(Nc4cc(OC)cc(C(=O)NCCN5CCOCC5)c4)n3)c3ccccc23)n(-c2ccc(C)cc2)n1 [Example 49] ?
Outgoing: 1

====

The entries below come with measured pIC50 values attached.
system.under.test: Syk (Homo sapiens)
assay.procedure: Syk enzyme inhibition (FRET)
Assay type: biochemical
assay.context: Table 4a2, different laboratory
pIC50 is a log-scale quantity: -log10 of the concentration expressed in molar.

Incoming: Returns the measured pIC50 for the input compound. Input: `C#Cc1cc(Nc2nccc(Oc3ccc(NC(=O)Nc4cc(C(C)C)nn4-c4ccc(C)cc4)c4ccccc34)n2)cc(C(=O)NCCN2CCOCC2)c1`
Outgoing: 7.66

Incoming: Same read-out for `COc1cc(Nc2nccc(Oc3ccc(NC(=O)Nc4cc(C(C)C)nn4-c4ccc(C)cc4)c4ccccc34)n2)cc(C(=O)NCCN2CCOCC2)c1` ?
Outgoing: 6.65

Incoming: Now the same for `C#Cc1cc(Nc2nccc(Oc3ccc(NC(=O)Nc4cc(C(C)(C)C)nn4-c4ccc(C)cc4)c4ccccc34)n2)cc(C(=O)N[C@@H](C)CN2CCOCC2)c1`
Outgoing: 7.21

Incoming: Next record, please: `C#Cc1cc(Nc2nccc(Oc3ccc(NC(=O)Nc4cc(C(C)(C)C)nn4-c4ccc(N(C)C)cc4)c4ccccc34)n2)cc(C(=O)NCCN2CCOCC2)c1`
Outgoing: 7.60

Incoming: Please do the same for `C#Cc1cc(Nc2nccc(Oc3ccc(NC(=O)Nc4cc(C(C)(C)C)nn4-c4ccc(C)cc4)c4ccccc34)n2)cc(C(=O)N[C@H](C)CN2CCOCC2)c1` as well.
Outgoing: 7.23

Incoming: Check `C#Cc1cc(Nc2nccc(Oc3ccc(NC(=O)Nc4cc(C(C)(C)C)nn4-c4ccc(C)cc4)c4ccccc34)n2)cc(C(=O)NCCN2CCOCC2)c1` too.
Outgoing: 7.55

Incoming: Also `C#Cc1cc(Nc2nccc(Oc3ccc(NC(=O)Nc4cc(C(C)(C)C(F)(F)F)nn4-c4ccc(C)cc4)c4ccccc34)n2)cc(C(=O)NCCN2CCOCC2)c1` ?
Outgoing: 7.47

Incoming: Input `C#Cc1cc(Nc2nccc(Oc3ccc(NC(=O)Nc4cc(C(C)(C)C)nn4-c4ccc(OC)cc4)c4ccccc34)n2)cc(C(=O)N[C@@H](C)COC)c1`
Outgoing: 7.04

Incoming: Queued: `C#Cc1cc(Nc2nccc(Oc3ccc(NC(=O)Nc4cc(C(C)C)nn4-c4ccc(C)cc4)c(Cl)c3Cl)n2)cc(C(=O)NCCN2CCOCC2)c1`
Outgoing: 7.57

Incoming: Same question for `COc1cc(Nc2cc(Oc3ccc(NC(=O)Nc4cc(C(C)(C)C)nn4-c4ccc(C)cc4)c4ccccc34)ccn2)cc(C(=O)NCCN2CCOCC2)c1` please.
Outgoing: 7.18

====

Tested on: ICAM-1 expression, BEAS2B cells
assay.procedure: Poly I:C-induced ICAM-1 expression in BEAS2B cells
Assay type: cell-based
assay.context: Homo sapiens, BEAS-2B; read-out: Poly IC induced ICAM1 in BEAS2B, IC50
value.type: IC50 (nM)
Please reply with the bare figure in nM and do not write the unit itself.

molecule	IC50 [nM]
Cc1ccc(-n2nc(C(C)C)cc2NC(=O)Nc2ccc(Oc3ccnc(Nc4cc(C)cc(C(=O)NCCN5CCOCC5)c4)n3)c3ccccc23)cc1 [Example 44]	1.9
COc1cc(Nc2nccc(Oc3ccc(NC(=O)Nc4cc(C(C)C)nn4-c4ccc(C)cc4)c4ccccc34)n2)cc(C(=O)NCCO)c1 [Example 63]	10.1
COCCNC(=O)c1cc(Nc2nccc(Oc3ccc(NC(=O)Nc4cc(C(C)(C)C)nn4-c4ccc(C)cc4)c4ccccc34)n2)cc(OC)c1 [Example 67]	140
COc1ccc(-n2nc(C3CCOC3)cc2NC(=O)Nc2ccc(Oc3ccnc(Nc4cc(OC)cc(C(=O)NCCN5CCOCC5)c4)n3)c3ccccc23)cc1 (stereo not drawn) [Example 59]	39.7
Cc1ccc(-n2nc(C(C)(C)C)cc2NC(=O)Nc2ccc(Oc3ccnc(Nc4cccc(C(=O)NCCN5CCOCC5)c4)n3)c3ccccc23)cc1 [Example 3]	0.7

Next, consider the following molecule.
Incoming: Query (molecule): COc1ccc(Nc2nccc(Oc3ccc(NC(=O)Nc4cc(C(C)(C)C)nn4-c4ccc(C)cc4)c4ccccc34)n2)cc1C(=O)NCCN1CCOCC1 [Example 13] ; field requested: IC50
Outgoing: 1.7

====

Test system: ICAM-1 expression, BEAS2B cells
assay.procedure: Poly I:C-induced ICAM-1 expression in BEAS2B cells
Assay type: cell-based
assay.context: Homo sapiens, BEAS-2B; read-out: Poly IC induced ICAM1 in BEAS2B, IC50
Procedure: (f) Poly I:C-Induced ICAM-1 Expression in BEAS2B Cells Poly I:C is used in these studies as a simple, RNA virus mimic. […] Cells are pre-incubated with final concentrations of test compounds for 2 hr and the level of ICAM1 expression on the cell surface is determined by cell-based ELISA. […]
value.type: IC50 (nM)
Enter your answer as a number in nM; do not include the unit.

Consider the reported IC50 for these compounds:
compound	unit.annotation	IC50
COCC(=O)Nc1cc(Oc2ccc(NC(=O)Nc3cc(C(C)(C)C)nn3-c3ccc(C)cc3)c3ccccc23)ccn1 [Reference Compound, reference compound]	nM	2.1
Cc1ccc(-n2nc(C3(C)COC3)cc2NC(=O)Nc2ccc(Oc3ccnc(Nc4cccc(C(=O)NCCN5CCOCC5)c4)n3)c3ccccc23)cc1	nM	4.1
Cc1ccc(-n2nc(C(C)C)cc2NC(=O)Nc2ccc(Oc3ccnc(Nc4cc(Cl)cc(C(=O)NCCN5CCOCC5)c4)n3)c3ccccc23)cc1	nM	132
Cc1ccc(-n2nc(C(C)(C)C)cc2NC(=O)Nc2ccc(Oc3ccnc(Nc4cccc(C(=O)NCCN(C)C)c4)n3)c3ccccc23)cc1	nM	2.3
COCCNC(=O)c1cc(Nc2nccc(Oc3ccc(NC(=O)Nc4cc(C(C)C)nn4-c4ccc(C)cc4)c4ccccc34)n2)cc(OC)c1	nM	2.2

Incoming: Give the measured IC50 of `Cc1ccc(-n2nc(C(C)(C)C)cc2NC(=O)Nc2ccc(Oc3ccnc(Nc4cccc(C(=O)NCCN5CCN(C)CC5)c4)n3)c3ccccc23)cc1` .
Outgoing: 1.9
